- target system: T1, PDZD2_2, O15018
- T1 sequence (O15018 329-429, limits assumed, looked up): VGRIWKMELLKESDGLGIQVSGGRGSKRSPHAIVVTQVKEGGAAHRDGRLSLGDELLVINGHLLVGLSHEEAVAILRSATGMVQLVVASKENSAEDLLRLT
- method description: holdup assay
- Parameters: key: below the threshold = too weak to quantify, mostly under pKd 3.1 to 4
- experimental context: plain residues with an end cap or a label only (N-terminal biotin on a linker: ado-ado)
endpoint name: pKd
Numbers only.

# example entries with known answers
[[record]]
binder = "HLSTRQGTCV [ATRNL1, Q5VV63]"
measured_value = 4.99

[[record]]
binder = "GNDPDRGTSI [GRID2, O43424]"
measured_value = 4.76

[[record]]
binder = "HYPASPDSWV [CTNND2, Q9UQB3]"
measured_value = 5.99


For each of the binders below, state pKd.
1. FLVTEFNVML [DFNB31, Q9P202]
2. PSDSVGKDVF [EGLN1, Q9GZT9]
3. QLKSGRDSTV [TMEM178A, Q8NBL3]
4. VYEVPVETKF [SLC26A3, P40879]
5. TKEIPNCTSV [SORCS3, Q9UPU3]
6. ADEMICITTL [CACNA1D, Q01668]

Result string:
[3.63, 3.62, 4.32, 3.72, 4.72, 3.95]
